Form field: growth (one value per entry).
- System: SK-OV-3 ovarian
- assay-method-text: NCI-60 one-dose screen, 48 h (100 = growth as untreated, 0 = no growth, -100 = all killed)
- recorded-conditions: 10 µM unless noted
The panel holds about 83,000 compounds, 20% with a hit somewhere; the sample as a whole holds those more often.
Only the number, expressed in %, is required.

Below: 3 molecules and their reported growth.
>>> number("COc1ccc(C2SCC(=O)N2NC(=O)c2ccc(NC(=O)c3ccccn3)cc2)cc1OC (stereo not drawn)")
102
>>> number("O=C1CCCCN1CCCCC#Cc1ccccc1C#Cc1ccccn1")
118
>>> number("C=C1C(=O)O[C@H]2[C@H]1CC/C(COC(=O)NCCc1cccc(OC)c1)=C\\CC[C@@]1(C)O[C@@H]21")
90.3

Q: Sample C=C1C(=O)O[C@H]2[C@H]1CC/C(COC(=O)NCc1cc(OC)cc(OC)c1)=C\CC[C@@]1(C)O[C@@H]21 — what was its growth?
A: 81.7

Q: Could you do the same for COC12CC(=O)C(C(C)=O)=C(O)C1(C)c1c(O)c(C)c(O)c(C(C)=O)c1O2 (stereo not drawn) , please?
A: 104

Q: Could you do the same for O=C1Nc2cc(Cl)ccc2Oc2cc(Oc3ccccc3)ccc21 , please?
A: 47.4

----------
- System: LOX IMVI melanoma
- assay-method-text: NCI-60 one-dose screen, 48 h (100 = growth as untreated, 0 = no growth, -100 = all killed)
- recorded-conditions: 10 µM unless noted
Compounds without any hit were thinned out: in the full panel of roughly 83,000, 20% have a hit.
Form field: growth (one value per entry).
Only the number, expressed in %, is required.

Q: Sample O=C1NC(Cc2c[nH]c3ccccc23)C(=O)N1Cc1ccc(Cl)cc1 (stereo not given) — what was its growth?
A: 89.1

Q: Could you do the same for Cc1c(C2=NNC(c3ccc4c(c3)OCO4)C2)[n+]([O-])c2ccccc2[n+]1[O-] (stereo not given) , please?
A: 96.1

----------
- System: SK-MEL-28 melanoma
- assay-method-text: NCI-60 one-dose screen, 48 h (100 = growth as untreated, 0 = no growth, -100 = all killed)
- recorded-conditions: 10 µM unless noted
About 83,000 compounds went through this panel and 20% of them were active in at least one assay; those are over-represented in the sample as a whole. Calls of active or inactive are those of the source. How the source made its calls: active means growth percent below 10; inactive means the rest.
property-name: growth

>>> result("COc1cc(OC)cc(-c2n[nH]nc2-c2ccc3c(c2)OCO3)c1")
"32% (inactive)"
>>> result("COc1cccc(NC(=O)c2sc3nc4c(cc3c2N)CCCC4)c1")
"48.9% (inactive)"
>>> result("COc1ccc(NC(=O)CSc2nc3ccc(Cl)cc3c(=O)n2-c2ccccc2C(F)(F)F)c(OC)c1OC")
"92.1% (inactive)"
>>> result("COc1ccc(-n2cnc3c(sc4ncc(Cl)cc43)c2=O)cc1")
"102% (inactive)"
>>> result("Cc1oc2nc[nH]c(=O)c2c1C(=O)/C=C/c1ccc(Cl)cc1")
"39.4% (inactive)"

Q: Sample COc1ccc(C(=O)c2cc(OC)c(OC)c(OC)c2)cc1/C=C/C(=O)c1ccc2c(c1)OCO2 — what was its growth?
A: -57% (active)

Q: Could you do the same for COc1cc(-c2csc(NC(=O)Nc3ccc(Cl)cc3Cl)n2)cc(OC)c1OC , please?
A: 62.6% (inactive)

Q: Could you do the same for O=S(=O)(NCCCNc1cc(-c2cn(-c3ccccc3)nc2-c2cccc(O)c2)ccn1)c1cccc2ccccc12 , please?
A: 4.71% (active)

Q: Could you do the same for CCc1c(C(=O)Nc2ccc3ccccc3c2)[nH]c(C)c1C(C)=O , please?
A: 97.8% (inactive)

Q: Could you do the same for CC1CCN(C(=O)CSc2nc3sc4c(c3c(=O)[nH]2)CCCC4)CC1 , please?
A: 125% (inactive)

----------
- Tested on: SK-MEL-5 melanoma
- assay-method-text: NCI-60 one-dose screen, 48 h
- recorded-conditions: 10 µM unless noted
About 83,000 compounds went through this panel and 20% of them were active in at least one assay; those are over-represented in the sample as a whole. Calls of active or inactive are those of the source. The calls were made as follows: active = growth percent below 10; inactive = the rest.
Permitted responses: active, inactive

>>> cat("CC/C=C\\C[C@H]1C/C=C2/C(=O)C(Cl)=C[C@@H]2C/C=C\\CCCC(=O)O1")
"active"
>>> cat("COc1ccc(NC(=O)CSc2nc3ccccc3c(=O)n2-c2ccccc2C(F)(F)F)c(OC)c1OC")
"inactive"
>>> cat("COc1cccc(NC(=O)c2sc3nc4c(cc3c2N)CCCC4)c1")
"inactive"
>>> cat("CC(=O)Nc1ccc(S(=O)(=O)N2C(=O)CCC2C(=O)Nc2ccc(Br)cc2)cc1 (stereo unspecified)")
"inactive"

Q: Recorded test call requested for CCN(CC)P(=O)(N(CC)CC)N(CCCSC/C=C(\C)CC/C=C(\C)CCC=C(C)C)CCCN1CCN(C)CC1
A: inactive

Q: Could you do the same for CCCCCCCCCN1C(=O)/C(=c2\sc3n(c2=O)C2C(NN=3)N(CC)C(=O)N2CC)c2ccccc21 (stereo unspecified) , please?
A: inactive

----------
- System: K-562 leukemia
- assay-method-text: NCI-60 one-dose screen, 48 h (100 = growth as untreated, 0 = no growth, -100 = all killed)
- recorded-conditions: 10 µM unless noted
About 83,000 compounds went through this panel and 20% of them were active in at least one assay; those are over-represented in the sample as a whole.
property-name: growth (%)
Only the number, expressed in %, is required.

Below: 3 compounds and their reported growth.
>>> number("Cc1cnc(NC(=O)C(Cc2ccccc2)NC(=O)c2ccccc2)s1 (centres undefined)")
29.7
>>> number("CCCCCCCCCCCCCCCCC(Br)C(=O)O (centres undefined)")
86.1
>>> number("CCn1cc(C(=O)O)c(=O)c2cc(F)c(N3CCN(S(=O)(=O)c4ccc(Cl)cc4Cl)CC3)cc21")
10.9

Q: Sample COc1cccc(C2CC(=O)Nc3c2c(C)nn3-c2nc3ccccc3[nH]2)c1OC (centres undefined) — what was its growth?
A: 40.9

Q: Could you do the same for COc1cc(NCCCN=C(N)NC(N)=NC(C)C)c2ncccc2c1 , please?
A: 44.6

Q: Could you do the same for CCOC(=O)C1=C(CSC(=S)N(C2CCCCC2)C2CCCCC2)N(C)C(=O)NC1c1ccccc1 (centres undefined) , please?
A: 35.2

Q: Could you do the same for COc1ccc(S(=O)(=O)N2CCN(c3cc4c(cc3F)c(=O)c(C(=O)O)cn4C3CC3)CC2)c(OC)c1 , please?
A: 89.1

Q: Could you do the same for NC(=O)c1c(NC(=O)c2ccc3c(c2)OCO3)sc2c1CCC(=O)C2 , please?
A: 1.31

----------
- System: OVCAR-4 ovarian
- assay-method-text: NCI-60 one-dose screen, 48 h (100 = growth as untreated, 0 = no growth, -100 = all killed)
- recorded-conditions: 10 µM unless noted
This is part of a sample that, as a whole, favours compounds with a hit. Of some 83,000 tested, about 20% had one in any assay.
property-name: growth (%)
Only the number, expressed in %, is required.

>>> number("O=S(=O)(NCCCNc1cc(-c2cn(-c3ccccc3)nc2-c2cccc(O)c2)ccn1)c1ccc(Br)cc1")
37.4
>>> number("COc1cc(C2C=C(C)N=C3SC=CN32)cc(OC)c1OC (configuration not stated)")
108
>>> number("O=C(Nc1ccc(I)cc1)c1cc([N+](=O)[O-])ccc1O")
30.3
>>> number("CCOC(=O)CC/C(C)=N\\Nc1ccc([N+](=O)[O-])cc1")
77.2
>>> number("Cc1ccc(S(=O)(=O)OCC(=O)Nc2ccc(C(=O)O)c(O)c2)cc1")
86.9
>>> number("COc1cccc(NC(=O)c2sc3nc4c(cc3c2N)CCCC4)c1")
72.1
>>> number("COc1ccc(/C=C/C(=O)OCC(=O)NNC(=O)c2ccccc2)cc1OC")
101
>>> number("COc1cccc(-c2nc3sccn3c2-c2ccnc(NCCNS(=O)(=O)c3ccccc3)n2)c1")
57.4

Q: Sample CC(=O)Nc1ccc(S(=O)(=O)NC(CCC(=O)Nc2ccc(Cl)cc2)C(=O)O)cc1 (configuration not stated) — what was its growth?
A: 94

Q: Could you do the same for COc1cc(OC)c(C(=O)/C=C/c2ccc(C#N)cc2)c(OC)c1 , please?
A: 32.8

Q: Could you do the same for COc1ccc2c(c1)C(=O)/C(=C/c1ccc(O)cc1)O2 , please?
A: 85.2

Q: Could you do the same for O=C1CCCCC=C1C[N+](=O)[O-] , please?
A: 94.9

----------
- System: MALME-3M melanoma
- assay-method-text: NCI-60 one-dose screen, 48 h
- recorded-conditions: 10 µM unless noted
About 83,000 compounds went through this panel and 20% of them were active in at least one assay; those are over-represented in the sample as a whole. Calls of active or inactive are those of the source. How the source made its calls: active means growth percent below 10; inactive means the rest.
Permitted responses: active, inactive

As a guide, the following entries are already answered.
>>> cat("O=C(CNC(=O)c1cccc2ccccc12)Nc1ccccc1Oc1ccccc1")
"inactive"
>>> cat("C/C(=N\\NC(=O)CC#N)c1cc2cc(Cl)ccc2o1")
"inactive"
>>> cat("Clc1cccc(Cl)c1Cn1c(-c2cncs2)nc2ccccc21")
"inactive"
>>> cat("CC/C=C\\C[C@H]1C/C=C2/C(=O)C(Cl)=C[C@@H]2C/C=C\\CCCC(=O)O1")
"active"
>>> cat("CN1CCN(c2ccc3cc(-c4nc5ccccc5[nH]4)c(=O)oc3c2)CC1")
"inactive"

Q: Recorded test call requested for CCSc1nnc(NC(=O)COc2ccc(Cl)cc2C)s1
A: inactive

Q: Could you do the same for O=C(c1ccncc1)N1N=C(c2ccc(Cl)cc2)CC1c1c[nH]c2ccccc12 (stereo not given) , please?
A: inactive

Q: Could you do the same for COc1cccc(-c2nc3sccn3c2-c2ccnc(NCCNS(=O)(=O)c3ccccc3)n2)c1 , please?
A: inactive

Q: Could you do the same for COc1cc(C(=O)/C=C/c2cc(C(=O)c3cc(OC)c(OC)c(OC)c3)ccc2OC)ccc1N , please?
A: active

Q: Could you do the same for Cc1ccc(OCCn2c(C)nn(-c3ccc(Cl)cc3)c2=O)cc1 , please?
A: inactive

Q: Could you do the same for COc1cccc2nc(Nc3ccc(NC(=O)c4ccc5ncccc5c4)cc3)ccc12 , please?
A: inactive

Q: Could you do the same for CCCCCCCCCN1C(=O)/C(=c2\sc3n(c2=O)C2C(NN=3)N(CC)C(=O)N2CC)c2ccccc21 (stereo not given) , please?
A: inactive

Q: Could you do the same for O=C1OC(c2ccccc2)=N/C1=C\c1ccc([N+](=O)[O-])cc1 , please?
A: inactive

Q: Could you do the same for c1ccn2nnnc2c1 , please?
A: inactive
